# Target Desc: Histone deacetylase 1 (Homo sapiens)
# Procedure Summary: Inhibition of recombinant HDAC1 (unknown origin) using of Fluor-de-Lys substrate incubated for 10 mins by fluorimetric assay
pIC50: −log10 of the molar value.
# binarize pIC50: threshold 6 inclusive, high side rule met, low side rule not met

Consider the following illustrative entries.
>  <Cpd Smiles>
Cc1noc(C)c1-c1cc(NC(=O)CCCCCC(=O)NO)cc(C(=O)c2ccccc2)c1

>  <Qualitative Label>
rule met

$$$$
>  <Cpd Smiles>
Cc1noc(C)c1-c1cc(OCCCCC(=O)NO)cc(C(=O)c2ccccc2)c1

>  <Qualitative Label>
rule not met

$$$$
>  <Cpd Smiles>
Cc1noc(C)c1-c1cccc(NC(=O)CCCCCC(=O)NO)c1

>  <Qualitative Label>
rule met

$$$$

**Query** Does pIC50 meet or surpass 6 for Cc1noc(C)c1-c1cc(NC(=O)CCCCCCC(=O)NO)cc(C(=O)c2ccccc2)c1 ?
**Result** rule met

**Query** I'd appreciate it if you could say whether Cc1noc(C)c1-c1cc(OCCCCCCCC(=O)NO)cc(C(=O)c2ccccc2)c1 has pIC50 at least equal to 6.
**Result** rule not met

###

Catalogue of molecules with associated pIC50
# Target Desc: Histone deacetylase 1 (Homo sapiens, UniProt Q13547)
# Sequence (Q13547 whole entry): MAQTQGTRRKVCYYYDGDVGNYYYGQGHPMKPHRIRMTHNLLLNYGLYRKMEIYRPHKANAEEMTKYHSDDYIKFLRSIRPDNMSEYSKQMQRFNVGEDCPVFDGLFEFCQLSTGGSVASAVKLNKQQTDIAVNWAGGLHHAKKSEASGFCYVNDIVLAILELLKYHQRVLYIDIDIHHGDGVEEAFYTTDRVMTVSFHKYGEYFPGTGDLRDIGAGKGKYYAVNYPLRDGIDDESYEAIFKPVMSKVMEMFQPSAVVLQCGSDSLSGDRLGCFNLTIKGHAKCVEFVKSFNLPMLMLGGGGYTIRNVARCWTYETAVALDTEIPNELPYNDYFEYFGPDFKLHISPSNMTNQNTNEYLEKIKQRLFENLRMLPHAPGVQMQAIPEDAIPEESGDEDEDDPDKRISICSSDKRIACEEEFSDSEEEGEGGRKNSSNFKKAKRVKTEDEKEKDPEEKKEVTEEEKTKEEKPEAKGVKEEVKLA
# Procedure Summary: Inhibition of recombinant HDAC1 (unknown origin) using of Fluor-de-Lys substrate incubated for 10 mins by fluorimetric assay
// pIC50 here means minus log10 of the molar concentration (mol/L)

Here are 3 molecules together with their reported answers.
>  <Molecule>
Cc1noc(C)c1-c1cc(OCCCCCCC(=O)NO)cc(C(O)c2ccccc2)c1 (centres undefined)

>  <Reported Value>
6.01

$$$$
>  <Molecule>
Cc1noc(C)c1-c1cc(OCCCCCC(=O)NO)cc(C(=O)c2ccccc2)c1

>  <Reported Value>
5.83

$$$$
>  <Molecule>
Cc1noc(C)c1-c1cc(OCCCCCCC(=O)NO)cc(C(=O)c2ccccc2)c1

>  <Reported Value>
5.84

$$$$

Continue with the next molecule.
**Query** Bench note: what pIC50 did Cc1noc(C)c1-c1cc(NC(=O)CCCCC(=O)NO)cc(C(=O)c2ccccc2)c1 show?
**Result** 6.12
